- TARGET_OR_SYSTEM: N-terminally GST-tagged human full length recombinant Mps-1 kinase (Homo sapiens)
- Construct: N-terminally GST-tagged human full length recombinant Mps-1 kinase; purchased Invitrogen, Karslruhe, Germany PV4071
- Sequence (P33981 whole entry): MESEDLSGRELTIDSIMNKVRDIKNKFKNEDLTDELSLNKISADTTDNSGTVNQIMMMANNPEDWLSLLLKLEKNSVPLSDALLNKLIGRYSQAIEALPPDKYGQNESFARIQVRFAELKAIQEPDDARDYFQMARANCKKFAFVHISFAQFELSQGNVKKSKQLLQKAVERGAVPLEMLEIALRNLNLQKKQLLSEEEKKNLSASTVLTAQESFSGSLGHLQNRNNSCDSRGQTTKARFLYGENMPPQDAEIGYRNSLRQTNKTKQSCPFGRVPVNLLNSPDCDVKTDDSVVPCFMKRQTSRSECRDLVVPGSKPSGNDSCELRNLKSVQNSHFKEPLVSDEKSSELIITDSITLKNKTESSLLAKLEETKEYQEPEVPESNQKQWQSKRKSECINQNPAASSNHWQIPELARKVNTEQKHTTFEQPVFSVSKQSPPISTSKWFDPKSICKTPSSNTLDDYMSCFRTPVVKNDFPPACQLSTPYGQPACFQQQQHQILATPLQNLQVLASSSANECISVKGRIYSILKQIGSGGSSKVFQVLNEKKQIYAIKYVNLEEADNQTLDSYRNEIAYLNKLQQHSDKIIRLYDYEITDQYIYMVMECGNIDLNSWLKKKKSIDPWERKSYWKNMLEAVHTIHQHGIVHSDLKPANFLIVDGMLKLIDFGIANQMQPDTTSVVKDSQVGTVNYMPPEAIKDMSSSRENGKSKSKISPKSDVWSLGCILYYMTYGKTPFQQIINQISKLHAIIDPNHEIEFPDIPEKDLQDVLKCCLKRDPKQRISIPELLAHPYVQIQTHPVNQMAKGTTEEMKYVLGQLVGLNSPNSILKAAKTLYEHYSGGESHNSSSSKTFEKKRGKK
- METHOD_NOTES: Mps-1 kinase assay (TR-FRET)
- Assay type: biochemical
- EXPERIMENTAL_PARAMETERS: Mps1 IC50 [nM], 10 μM ATP, 1 μM peptide substrate, 60 min at 22° C.
- Experimental: The human kinase Mps-1 phosphorylates a biotinylated substrate peptide. Detection of the phosphorylated product is achieved by time-resolved fluorescence resonance energy transfer (TR-FRET) from Europium-labelled anti-phospho-Serine/Threonine antibody as donor to streptavidin labelled with cross-linked allophycocyanin (SA-XLent) as acceptor. Compounds are tested for their inhibition of the kinase activity. […]
Kindly supply the reported IC50 values for the records listed here.
Please respond with the number in nM and leave the unit unwritten.

[in] Input `CCNC(=O)c1ccc(-c2cnc3c(NCCN4CCOCC4)cc(Oc4ccc(F)c(F)c4)nn23)cc1C` , output reported IC50.
[out] 2.2

[in] Input `Cc1cccc(Oc2cc(NCC(C)(C)O)c3ncc(-c4ccc(C(=O)NC5CC5)c(C)c4)n3n2)c1` , output reported IC50.
[out] 0.2

[in] Input `Cc1cc(-c2cnc3c(NCCn4cccn4)cc(Oc4cccc(F)c4)nn23)ccc1C(=O)NC1CC1` , output reported IC50.
[out] 0.4

[in] Input `CCNC(=O)c1ccc(-c2cnc3c(NCCOC)cc(Oc4ccc(F)c(F)c4)nn23)cc1C` , output reported IC50.
[out] 3.7

[in] Input `Cc1cc(-c2cnc3c(NCC(C)(C)O)cc(Nc4ccc(Cl)cc4F)nn23)ccc1C(=O)NC1CC1` , output reported IC50.
[out] 1.5

[in] Input `Cc1cc(-c2cnc3c(NCCC(F)(F)F)cc(Oc4cccc5c4NCCC5)nn23)ccc1C(=O)NC1CC1` , output reported IC50.
[out] 4.8

[in] Input `Cc1cc(-c2cnc3c(NCCC(F)(F)F)cc(Nc4ccc(F)c(F)c4)nn23)ccc1C(=O)NC1CC1` , output reported IC50.
[out] 0.2
